Assay system: prostate specific membrane antigen (PSMA) (UniProt Q04609 1-750, limits assumed)
Sequence (Q04609 whole entry): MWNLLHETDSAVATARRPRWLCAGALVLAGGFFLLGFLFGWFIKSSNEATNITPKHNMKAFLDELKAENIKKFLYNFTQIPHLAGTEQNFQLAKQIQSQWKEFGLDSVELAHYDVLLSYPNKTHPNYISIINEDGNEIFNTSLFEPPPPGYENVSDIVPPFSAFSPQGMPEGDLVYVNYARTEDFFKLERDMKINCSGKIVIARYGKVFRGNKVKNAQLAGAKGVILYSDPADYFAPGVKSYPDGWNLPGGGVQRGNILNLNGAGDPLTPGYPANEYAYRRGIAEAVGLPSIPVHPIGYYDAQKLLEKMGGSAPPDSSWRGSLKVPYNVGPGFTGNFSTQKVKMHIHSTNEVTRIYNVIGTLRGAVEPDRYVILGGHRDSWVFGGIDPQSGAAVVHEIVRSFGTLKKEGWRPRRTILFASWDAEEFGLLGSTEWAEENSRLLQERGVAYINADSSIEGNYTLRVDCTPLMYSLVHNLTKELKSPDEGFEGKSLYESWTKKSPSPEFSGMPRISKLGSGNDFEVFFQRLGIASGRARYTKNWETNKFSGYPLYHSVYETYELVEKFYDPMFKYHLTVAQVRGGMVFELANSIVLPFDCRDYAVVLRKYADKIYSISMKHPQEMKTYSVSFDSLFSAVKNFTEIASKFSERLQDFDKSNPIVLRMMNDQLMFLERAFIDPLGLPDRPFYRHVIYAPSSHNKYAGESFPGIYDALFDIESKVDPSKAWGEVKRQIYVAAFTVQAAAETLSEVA
Test protocol: cell-based or functional assay
Experimental readout: IC50 (nM), in vitro cell killing in C4-2 cell line (Cell Titer Glo, 96 h)
Answer by giving the amount and then stating its unit.

Binder	Meas value
Humanized Anti-PSMA Antibody Variant 2 ADC, MMAF payload, Short Cleavable (Valine-Citruline-Acetyl) linker (antibody, human IgG1, kappa, V domains shown, para-acetyl phenylalanine (pAF) at position A114 (Kabat numbering; first residue of the heavy chain constant region), conjugated to short cleavable (Valine-Citruline-Acetyl) MMAF drug-linker) VH: QVQLVQSGAEVKKPGASVKVSCKASGYTFTEYTIHWVRQAPGQRLEWMGNINPNNGGTTYNQKFEDRVTITRDTSASTAYMELSSLRSEDTAVYYCAAGWNFDYWGQGTTLTVSS VL: DIQLTQSPSFLSASVGDRVTITCKASQDVGTAVDWYQQKPGKAPKLLIYWASTRHTGVPSRFSGSGSGTEFTLTISSLQSEDFATYYCQQYNSYPLTFGGGTKVEIKR	0.053 nM

Shifting focus to the binder that follows.
Could you share which IC50 (nM), in vitro cell killing in C4-2 cell line (Cell Titer Glo, 96 h) value was measured for Humanized Anti-PSMA Antibody Variant 1 ADC, MMAF payload, Short Cleavable (Valine-Citruline-Acetyl) linker (antibody, human IgG1, kappa, V domains shown, para-acetyl phenylalanine (pAF) at position A114 (Kabat numbering; first residue of the heavy chain constant region), conjugated to short cleavable (Valine-Citruline-Acetyl) MMAF drug-linker) VH: QVQLVQSGAEVKKPGASVKVSCKASGYTFTEYTIHWVRQAPGQRLEWMGNINPNNGGTTYNQKFEDRVTITRDTSASTAYMELSSLRSEDTAVYYCAAGWNFDYWGQGTTLTVSS VL: DIQLTQSPSFLSASVGDRVTITCKASQDVGTAVDWYQQKPGKAPKLLIYWASTRHTGVPSRFSGSGSGTEFTLTISSLQPEDFATYYCQQYNSYPLTFGGGTKVEIKR ?
0.064 nM
